# target or system: ZAP70 (human)
# protocol notes: radiometric filter-binding kinase assay, Kinase HotSpot
# experimental context: compound 0.5 µM; ATP 10 µM
residual activity under 90% gets Criterion met, anything at or over 90% gets Criterion not met.

Some entries whose results are on file:
O=C(c1cc2cc(O)ccc2[nH]1)c1cc2cc(O)ccc2[nH]1	Criterion not met
O=C1c2ccccc2-c2nc3nnnn3nc21	Criterion met
NC(=O)c1cccc(-c2cc(Nc3ccc(OC(F)(F)F)cc3)ncn2)c1	Criterion not met
Fc1ccc(-c2nc3n(c2-c2ccncc2)CCS3)cc1	Criterion not met
COc1cc(Nc2c(C#N)cnc3cc(OCCCN4CCN(C)CC4)c(OC)cc23)c(Cl)cc1Cl	Criterion not met

## Task Dear reviewer, please state whether "COc1ccc(Cl)cc1NC(=O)Nc1cc(C)nc2ccccc12" has residual activity strictly beneath 90%.
## Result Criterion not met

## Task I wonder whether "Cn1c2ccccc2c2c3c(c4c5ccccc5n(CCC#N)c4c21)CNC3=O" has residual activity below 90%. Can you tell?
## Result Criterion met

## Task Lab note: confirm whether the reported residual activity for this compound is below 90%, equality not counting. compound: "Cc1nc(-c2ccccc2)c(-c2ccncc2)o1"
## Result Criterion not met

## Task A record lists "COc1ccc2c(c1)/C(=C/c1cnc[nH]1)C(O)=N2" . Is its residual activity below 90%?
## Result Criterion not met

## Task I wonder whether "Ic1cccc(CSc2nnc(-c3ccncc3)o2)c1" has residual activity below 90%. Can you tell?
## Result Criterion not met

====

# residual activity values compiled below
# target or system: UniProtKB Q13237
# Sequence (Q13237 whole entry, looked up): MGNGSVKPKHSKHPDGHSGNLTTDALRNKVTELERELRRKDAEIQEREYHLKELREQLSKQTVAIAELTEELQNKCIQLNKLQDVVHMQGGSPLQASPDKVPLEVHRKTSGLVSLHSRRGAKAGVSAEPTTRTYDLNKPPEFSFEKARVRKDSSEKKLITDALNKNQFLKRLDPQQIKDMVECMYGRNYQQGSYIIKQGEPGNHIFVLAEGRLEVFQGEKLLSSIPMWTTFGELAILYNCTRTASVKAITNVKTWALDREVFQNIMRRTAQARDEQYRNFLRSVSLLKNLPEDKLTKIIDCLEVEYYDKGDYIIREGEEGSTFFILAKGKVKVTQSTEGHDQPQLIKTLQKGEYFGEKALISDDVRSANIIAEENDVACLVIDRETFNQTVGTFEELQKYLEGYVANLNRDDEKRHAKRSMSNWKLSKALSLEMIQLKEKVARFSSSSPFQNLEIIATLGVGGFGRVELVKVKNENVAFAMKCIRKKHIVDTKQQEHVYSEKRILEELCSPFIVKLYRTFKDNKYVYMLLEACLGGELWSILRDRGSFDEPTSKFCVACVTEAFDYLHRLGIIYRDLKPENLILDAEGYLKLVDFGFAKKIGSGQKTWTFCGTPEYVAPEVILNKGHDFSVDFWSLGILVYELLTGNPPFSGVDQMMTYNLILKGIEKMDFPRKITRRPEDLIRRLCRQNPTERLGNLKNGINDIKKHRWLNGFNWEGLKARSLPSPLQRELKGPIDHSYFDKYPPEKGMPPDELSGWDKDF
# protocol notes: radiometric filter-binding kinase assay, Kinase HotSpot
# experimental context: compound 0.5 µM; ATP 10 µM
# output: bare number, implied unit %

These recorded examples may help you get a feel for the data.
COc1ccc(S(=O)(=O)N(CCO)c2ccccc2CN(C)C/C=C/c2ccc(Cl)cc2)cc1	104
Cn1c2ccccc2c2c3c(c4c5ccccc5n(CCC#N)c4c21)CNC3=O	28.2
COc1cc2ncnc(Nc3ccc(OCc4ccccc4)cc3)c2cc1OC	104
O=C(c1cc2cc(O)ccc2[nH]1)c1cc2cc(O)ccc2[nH]1	80.6

# next compound below
## Task Output measured residual activity for this item: "COc1cc2ncnc(Nc3ccc(Oc4ccccc4)cc3)c2cc1OC"
## Result 98.3

====

# target or system: RPS6KA1 KD1 KD2 (human) (UniProt Q15418)
# Sequence (Q15418 whole entry, looked up): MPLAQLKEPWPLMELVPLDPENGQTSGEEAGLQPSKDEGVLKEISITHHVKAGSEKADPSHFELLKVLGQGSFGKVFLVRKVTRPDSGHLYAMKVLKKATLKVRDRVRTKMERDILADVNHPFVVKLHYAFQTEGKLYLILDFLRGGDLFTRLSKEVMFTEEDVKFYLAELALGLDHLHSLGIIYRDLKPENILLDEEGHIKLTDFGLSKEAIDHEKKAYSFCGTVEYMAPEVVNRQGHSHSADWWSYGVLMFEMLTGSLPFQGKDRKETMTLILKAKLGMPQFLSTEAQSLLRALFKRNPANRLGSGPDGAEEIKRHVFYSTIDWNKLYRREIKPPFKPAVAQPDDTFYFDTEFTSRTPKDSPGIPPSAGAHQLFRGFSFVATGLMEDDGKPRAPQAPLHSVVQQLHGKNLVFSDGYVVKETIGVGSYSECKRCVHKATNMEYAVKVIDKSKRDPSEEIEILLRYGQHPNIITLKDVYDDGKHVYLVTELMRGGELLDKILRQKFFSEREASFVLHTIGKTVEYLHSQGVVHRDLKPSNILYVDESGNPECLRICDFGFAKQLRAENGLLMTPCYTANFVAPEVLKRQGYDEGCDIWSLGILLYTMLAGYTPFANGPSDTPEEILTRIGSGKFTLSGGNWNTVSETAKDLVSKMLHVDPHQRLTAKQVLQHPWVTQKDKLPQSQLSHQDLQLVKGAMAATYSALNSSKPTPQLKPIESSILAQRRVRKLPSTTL
# protocol notes: radiometric filter-binding kinase assay, Kinase HotSpot
# experimental context: compound 0.5 µM; ATP 10 µM
Parameter: residual activity. Scope: all listed entries.
The response must be a number in % with no trailing unit.

C[C@@H]1CCN(C(=O)CC#N)C[C@@H]1N(C)c1ncnc2[nH]ccc12	90.9
CC(C)(C)c1cc(C=C(C#N)C#N)cc(Br)c1O	104
Ic1cccc(CSc2nnc(-c3ccncc3)o2)c1	98.6

Consider the record given below.
## Task Give reported residual activity value for "CN(C)S(=O)(=O)c1ccc2c(c1)/C(=C/c1cc3c([nH]1)CCCC3)C(=O)N2"
## Result 68.1

====

residual activity listing for selected compounds.
# target or system: PAK6 (human)
# protocol notes: radiometric filter-binding kinase assay, Kinase HotSpot
# experimental context: compound 0.5 µM; ATP 10 µM
Your answer should be a plain number; it is taken to be in %.

Guide cases for residual activity, answers given:
O=C(c1cc2cc(O)ccc2[nH]1)c1cc2cc(O)ccc2[nH]1	74.4
Cc1cccc(-c2nc(C(C)(C)C)[nH]c2-c2ccc3c(c2)OCO3)n1	103
O=C1C(Cl)=C(N2C(=O)CCC2=O)C(=O)c2ccccc21	89.6

Here's the next entry for you.
## Task Return value of residual activity for input "Ic1cccc(CSc2nnc(-c3ccncc3)o2)c1" , no commentary.
## Result 74
